Provide the recorded IC50 for the entries that follow.
molecular target: Fatty Acid Synthase Keto-reductase Domain (FASN KR) (Homo sapiens, UniProt P49327)
Sequence (P49327 whole entry, the tested form may be a part): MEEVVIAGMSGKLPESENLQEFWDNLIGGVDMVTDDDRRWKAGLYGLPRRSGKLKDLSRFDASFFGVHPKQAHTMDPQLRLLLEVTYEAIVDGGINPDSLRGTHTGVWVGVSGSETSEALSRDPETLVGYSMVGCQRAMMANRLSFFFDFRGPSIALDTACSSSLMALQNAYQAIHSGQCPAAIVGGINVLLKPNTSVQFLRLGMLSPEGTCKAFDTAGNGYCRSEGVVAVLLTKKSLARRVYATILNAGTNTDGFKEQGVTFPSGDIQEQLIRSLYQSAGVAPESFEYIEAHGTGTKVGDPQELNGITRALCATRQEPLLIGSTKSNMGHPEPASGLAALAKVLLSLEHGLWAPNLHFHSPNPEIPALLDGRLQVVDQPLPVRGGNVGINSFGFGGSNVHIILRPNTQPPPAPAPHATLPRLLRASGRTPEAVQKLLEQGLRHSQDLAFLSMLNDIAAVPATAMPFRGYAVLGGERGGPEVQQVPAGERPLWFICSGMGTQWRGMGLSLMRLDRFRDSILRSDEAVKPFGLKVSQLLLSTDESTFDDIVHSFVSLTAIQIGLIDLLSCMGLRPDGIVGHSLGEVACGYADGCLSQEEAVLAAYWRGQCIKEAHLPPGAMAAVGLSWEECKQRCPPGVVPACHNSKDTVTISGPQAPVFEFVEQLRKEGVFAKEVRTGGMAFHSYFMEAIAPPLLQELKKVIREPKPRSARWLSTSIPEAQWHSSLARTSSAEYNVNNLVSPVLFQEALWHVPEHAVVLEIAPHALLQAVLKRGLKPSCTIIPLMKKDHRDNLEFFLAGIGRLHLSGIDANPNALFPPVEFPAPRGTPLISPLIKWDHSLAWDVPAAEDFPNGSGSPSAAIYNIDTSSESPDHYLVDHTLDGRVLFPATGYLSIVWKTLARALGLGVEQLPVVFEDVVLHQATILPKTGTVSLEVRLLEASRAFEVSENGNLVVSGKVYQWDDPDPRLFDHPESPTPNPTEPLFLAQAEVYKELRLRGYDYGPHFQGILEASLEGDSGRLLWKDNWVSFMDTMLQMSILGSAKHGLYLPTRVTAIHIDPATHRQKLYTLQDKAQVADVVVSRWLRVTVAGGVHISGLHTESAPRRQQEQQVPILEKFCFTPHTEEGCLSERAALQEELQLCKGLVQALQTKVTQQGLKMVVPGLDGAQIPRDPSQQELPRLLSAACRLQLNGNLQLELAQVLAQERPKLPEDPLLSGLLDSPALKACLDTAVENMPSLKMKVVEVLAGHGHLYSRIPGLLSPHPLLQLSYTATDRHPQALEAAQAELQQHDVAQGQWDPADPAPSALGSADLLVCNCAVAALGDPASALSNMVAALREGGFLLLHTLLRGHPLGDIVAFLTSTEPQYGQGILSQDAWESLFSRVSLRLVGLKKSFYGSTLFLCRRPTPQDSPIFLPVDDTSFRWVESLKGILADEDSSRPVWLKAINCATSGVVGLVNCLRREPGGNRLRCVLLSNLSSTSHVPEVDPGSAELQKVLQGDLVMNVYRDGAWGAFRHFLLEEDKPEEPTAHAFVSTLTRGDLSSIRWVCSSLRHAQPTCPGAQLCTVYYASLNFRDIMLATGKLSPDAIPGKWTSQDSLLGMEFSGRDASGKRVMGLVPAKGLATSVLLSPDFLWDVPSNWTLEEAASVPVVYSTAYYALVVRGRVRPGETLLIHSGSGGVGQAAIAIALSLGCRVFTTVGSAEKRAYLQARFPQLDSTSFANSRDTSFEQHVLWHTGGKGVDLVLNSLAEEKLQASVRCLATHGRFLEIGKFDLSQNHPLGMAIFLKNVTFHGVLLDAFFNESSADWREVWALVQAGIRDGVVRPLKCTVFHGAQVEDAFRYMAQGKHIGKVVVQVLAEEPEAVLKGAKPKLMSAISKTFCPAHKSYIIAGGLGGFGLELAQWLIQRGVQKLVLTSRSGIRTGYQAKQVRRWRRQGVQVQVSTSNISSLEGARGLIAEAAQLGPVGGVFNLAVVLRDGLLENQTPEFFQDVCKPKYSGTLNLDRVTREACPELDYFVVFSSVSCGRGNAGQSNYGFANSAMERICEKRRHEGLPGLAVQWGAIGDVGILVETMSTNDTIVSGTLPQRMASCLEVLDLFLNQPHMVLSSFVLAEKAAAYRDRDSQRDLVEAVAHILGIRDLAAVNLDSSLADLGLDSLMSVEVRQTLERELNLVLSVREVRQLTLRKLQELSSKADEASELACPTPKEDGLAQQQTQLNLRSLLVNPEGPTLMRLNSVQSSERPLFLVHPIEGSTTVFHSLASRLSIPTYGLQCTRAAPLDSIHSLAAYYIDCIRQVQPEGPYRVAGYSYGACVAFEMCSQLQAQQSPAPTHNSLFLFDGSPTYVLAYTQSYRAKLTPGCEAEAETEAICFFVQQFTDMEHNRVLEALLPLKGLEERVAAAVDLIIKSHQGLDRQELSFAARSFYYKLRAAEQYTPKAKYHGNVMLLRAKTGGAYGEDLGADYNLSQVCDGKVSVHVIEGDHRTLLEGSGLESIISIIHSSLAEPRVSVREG
Numbers only, in nM.

Data request, read-out IC50, for Cc1nn(C)c2ccc(-c3ccc(C4=NC5(CC5)C(=O)N4C[C@@H]4CCN(C(=O)C5CC5)C4)cc3)cc12 102

Which IC50 value belongs to Cn1cc(-c2ccc(-c3ccc(C4=NC5(CC5)C(=O)N4C[C@@H]4CCN(C(=O)C5(O)CC5)C4)c(F)c3)cc2)cn1 ? 27.5

Value lookup for IC50; key = Cc1cc(-c2ccc3c(cnn3C)c2)ccc1C1=NC2(CC2)C(=O)N1CC1CN(C(=O)C2CCCO2)C1 (stereo not shown) [compound 205] 115

# get_value(readout='IC50', item= Cc1cc(-c2ccc3cc(F)ccc3c2)ccc1C1=NC2(CC2)C(=O)N1C[C@@H]1CCN(C(=O)C2(C)CC2)C1 ) 46.8

Can you share its IC50? I mean this compound: Cc1nc2cc(-c3ccc(C4=NC5(CC5)C(=O)N4CC4CN(C(=O)C5CC5)C4)c(F)c3)ccc2s1 479

Using the record for O=C(C1CC1)N1CC[C@@H](CN2C(=O)C3(CCCC3)N=C2c2ccc(-c3ccc4cc[nH]c4c3)cc2F)C1 , report its IC50. 40.7

API: the following record is the query input.
Given the entry O=C1Cc2cc(-c3ccc(C4=NC5(CC5)C(=O)N4C[C@@H]4CCN(C(=O)C5CC5)C4)cc3)ccc2N1 , report its measured IC50. 1450
